Values compiled from patent US20230090094A1.

- experiment_notes: Feline serum cannabidiol quantification and pharmacokinetics (LC-MS/MS)
- Type: in vivo, cats
- condition_parameters: serum, po, 2 mg/kg
readout_label: AUC(0-t) (ng·h/mL)
Kindly provide the numeric value in ng·h/mL only, without the unit symbol.

Q) For C=C(C)[C@@H]1CCC(C)=C[C@H]1c1c(O)cc(CCCCC)cc1O , what is its reported AUC(0-t)?
A) 154
